All values here come from PubChem BioAssay AID2060888.

- Test system: 695427-040-R-J1-PDC complex spheroid viability;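 also: viability read after seven days of drug exposure; 100% = DMSO vehicle control viability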
- test-description: Anticancer human tumor 695427-040-R-J1-PDC patient-derived colon adenocarcinoma cell line growth inhibition [RAS]
- condition-summary: second compound 0.316 µM; first compound 0.0949 µM; active compounds read low
parameter-measured: viability, T/C

Some compounds with recorded viability, T/C:
1. CC1(C)CCC(Nc2ncc(C(F)(F)F)c(-c3c[nH]c4c(P(C)(C)=O)c(C#N)ccc34)n2)CN1 (centres undefined) + C=CC(=O)N1CCN(c2nc(OCC3CCCN3C)nc3c(F)c(-c4nc(N)cc(C)c4C(F)(F)F)c(Cl)cc23)C(C)C1; 83.9%
2. CCc1c2c(nc3ccc(O)cc13)-c1cc3c(c(=O)n1C2)COC(=O)[C@]3(O)CC + C#Cc1c(F)ccc2cc(O)cc(-c3ncc4c(N5CC6CCC(C5)N6)nc(OCC56CCCN5CC(F)C6)nc4c3F)c12; 49.4%
3. CC1(C)CCC(Nc2ncc(C(F)(F)F)c(-c3c[nH]c4c(P(C)(C)=O)c(C#N)ccc34)n2)CN1 (centres undefined) + C#Cc1c(F)ccc2cc(O)cc(-c3ncc4c(N5CC6CCC(C5)N6)nc(OCC56CCCN5CC(F)C6)nc4c3F)c12; 76.8%

Moving on to the next compound.
Request: Would you mind telling me what viability, T/C value was observed for CCc1c2c(nc3ccc(O)cc13)-c1cc3c(c(=O)n1C2)COC(=O)[C@]3(O)CC + C=CC(=O)N1CCN(c2nc(OCC3CCCN3C)nc3c(F)c(-c4nc(N)cc(C)c4C(F)(F)F)c(Cl)cc23)C(C)C1 ?
Response: 63.6%
